tested on: system Xc^− (Homo sapiens, UniProt Q9UPY5)
Sequence (Q9UPY5 whole entry): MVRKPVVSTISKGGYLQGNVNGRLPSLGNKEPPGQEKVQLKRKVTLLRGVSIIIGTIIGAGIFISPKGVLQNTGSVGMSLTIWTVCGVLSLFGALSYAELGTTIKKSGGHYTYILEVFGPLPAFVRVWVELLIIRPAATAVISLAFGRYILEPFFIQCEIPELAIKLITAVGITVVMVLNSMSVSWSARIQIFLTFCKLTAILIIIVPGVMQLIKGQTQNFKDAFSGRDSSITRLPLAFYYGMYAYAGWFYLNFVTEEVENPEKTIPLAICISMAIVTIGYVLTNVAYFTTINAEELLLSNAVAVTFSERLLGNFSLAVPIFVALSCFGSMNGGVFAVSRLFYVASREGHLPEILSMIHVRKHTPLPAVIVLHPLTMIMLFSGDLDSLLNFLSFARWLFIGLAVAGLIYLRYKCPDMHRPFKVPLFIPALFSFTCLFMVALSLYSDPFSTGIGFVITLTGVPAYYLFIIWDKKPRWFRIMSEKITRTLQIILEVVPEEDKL
Sequence (P08195 102-630 partner): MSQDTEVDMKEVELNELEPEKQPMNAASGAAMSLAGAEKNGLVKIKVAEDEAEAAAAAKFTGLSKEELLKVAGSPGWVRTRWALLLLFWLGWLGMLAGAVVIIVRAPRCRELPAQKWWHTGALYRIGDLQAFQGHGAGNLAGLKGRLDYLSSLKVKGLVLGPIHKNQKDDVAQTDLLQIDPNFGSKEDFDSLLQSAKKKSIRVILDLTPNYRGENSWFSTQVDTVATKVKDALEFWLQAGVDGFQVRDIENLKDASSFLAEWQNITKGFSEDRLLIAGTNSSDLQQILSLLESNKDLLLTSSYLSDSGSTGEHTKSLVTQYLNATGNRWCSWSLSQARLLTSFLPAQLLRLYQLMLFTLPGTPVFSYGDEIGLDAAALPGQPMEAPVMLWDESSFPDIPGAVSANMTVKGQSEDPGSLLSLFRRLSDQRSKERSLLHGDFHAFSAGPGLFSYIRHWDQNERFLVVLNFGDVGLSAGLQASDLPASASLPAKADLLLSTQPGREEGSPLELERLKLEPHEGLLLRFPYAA
method notes: [^14C]L-Cystine uptake assay
Format: cell-based
Parameters: endogenous in cells; host or cells: H4 cells
setup conditions: H4 cells, sodium-free HEPES buffer, 0.5 μM L-[14C]Cystine and 4.5 μM L-Cystine, 1 hour at 37° C.; read-out: pIC50 [^14C] L-Cystine uptake assay (converted)
Give measured IC50 for each item. Keep answers brief.

// worked examples, IC50 included
{"columns": ["compound", "measured parameter", "assay result"],
 "data": [
  ["Cc1cc2c(c(F)n1)-c1cccnc1[C@H](C)C(=O)N2CC(=O)Nc1ccc(C(F)(F)F)cc1 (single isomer, unassigned) [#191]", "IC50", "39.8 to 100 nM"],
  ["COc1nccc2c1-c1cccnc1C(C)C(=O)N2CC(=O)Nc1ccc(Cl)c(F)c1 (single isomer, unassigned) [#297]", "IC50", "< 15.8 nM"],
  ["COc1nc(C)cc2c1-c1cccnc1C(O)C(=O)N2CC(=O)Nc1ccc(C(F)(F)F)cc1 (centres unmarked) [#96]", "IC50", "15.8 to 39.8 nM"],
  ["Cc1cc2c(c(F)n1)-c1cccnc1[C@@H](C)C(=O)N2CC(=O)Nc1ccc(C(F)(F)F)c(F)c1 [#143]", "IC50", "< 15.8 nM"],
  ["Cc1cc2c(c(F)n1)-c1ccnn1C(C)C(=O)N2CC(=O)Nc1ccc(C(F)(F)F)cc1 (centres unmarked) [#111]", "IC50", "39.8 to 100 nM"]
]}

Your task in this section: give IC50 for each listed record.
1. CC1C(=O)N(CC(=O)Nc2ccc(C(F)F)cc2)c2cc(Cl)cc(F)c2-c2cccnc21 (single isomer, unassigned) [#332]
2. Cc1cc2c(c(=O)n1C)-c1ccnn1C(C)C(=O)N2CC(=O)Nc1ccc(C(F)F)cc1 (single isomer, unassigned) [#358]

["< 15.8 nM", "100 to 501 nM"]

# batch size: 3; output IC50 per entry
1. COc1cc2c(c(F)n1)-c1cccnc1C(C)C(=O)N2CC(=O)Nc1ccc(F)c(Cl)c1 (single isomer, unassigned) [#216]
2. Cc1cc2c(c(C(F)F)n1)-c1cccnc1C(C)C(=O)N2CC(=O)Nc1ccc(C(F)F)cc1 (single isomer, unassigned) [#301]
3. Cc1cc2c(c(F)n1)-c1cccnc1[C@@H](C)C(=O)N2CC(=O)Nc1ccc(C(C)(F)F)c(F)c1 (single isomer, unassigned) [#236]

1: 15.8 to 39.8 nM; 2: 39.8 to 100 nM; 3: 15.8 to 39.8 nM
